The reported numbers originate from the NIST ThermoML archive (doi:10.1016/j.jct.2007.05.004).

We begin with a simple list: items and their reported viscosity.
details: 303.15 K; 101 kPa; Liquid
Numbers after ± are expanded uncertainties.

Guide cases for viscosity, answers given:
Annotate the compound CO with its measured viscosity.
0.508 ± 0.007 mPa·s

Annotate the compound CCO with its measured viscosity.
0.987 ± 0.013 mPa·s

More entries:
Annotate the compound CCOC(C)=O [ethyl acetate] with its measured viscosity.
0.403 ± 0.006 mPa·s

Annotate the compound COC(C)=O [methyl ethanoate] with its measured viscosity.
0.348 ± 0.006 mPa·s

* * *

conditions: 293.15 K; 101 kPa; Liquid
Numbers after ± are expanded uncertainties.
We begin with a simple list: items and their reported viscosity.
Please append the unit to your numeric answer.

Guide cases for viscosity, answers given:
Annotate the compound CO [methanol] with its measured viscosity.
0.585 ± 0.008 mPa·s

Annotate the compound CCOC(C)=O [ethyl acetate] with its measured viscosity.
0.452 ± 0.007 mPa·s

Annotate the compound COC(C)=O [methyl ethanoate] with its measured viscosity.
0.386 ± 0.006 mPa·s

More entries:
Annotate the compound CCO [ethanol] with its measured viscosity.
1.187 ± 0.015 mPa·s
